Cited source for all entries: PubChem BioAssay AID2060508

System: 454973-116-R2-J3-PDC spheroids, viability, % test/control
Assay: Anticancer human tumor 454973-116-R2-J3-PDC patient-derived pancreatic carcinoma cell line growth inhibition [GQUAD]
Conditions: second compound 3.16 µM; first compound 10 µM; active compounds read low; spheroids with HUVEC and MSC
Excerpt: DNA G-quadruplex Stabilizer Agents in Combinations in Complex Spheroids A high-throughput screen of multi-cell type tumor spheroids was designed to identify active combinations of DNA G-quadruplex stabilizer agents and targeted small molecules. […] Compounds. […] If the clinical Cmax for an agent had not been determined, the highest concentration tested was 10 microM. […]
The threshold is 20%. Values of viability, T/C beneath it are tagged 1.0; values meeting or exceeding it are tagged 0.0.

* CC1COCCN1c1cc(C2(S(C)(=N)=O)CC2)nc(-c2ccnc3[nH]ccc23)n1 (stereo not given) + Cc1cnc(CNC(=O)c2c(=O)c3ccc(N4CCCN(C)CC4)nc3n3c2sc2ccccc23)cn1 | 0.0
* COc1cc(C2c3cc4c(cc3C(OC3OC5COC(C)OC5C(O)C3O)C3COC(=O)C23)OCO4)cc(OC)c1O (stereo not given) + Cc1cnc(CNC(=O)c2c(=O)c3ccc(N4CCCN(C)CC4)nc3n3c2sc2ccccc23)cn1 | 0.0
* COc1cccc2c1C(=O)c1c(O)c3c(c(O)c1C2=O)CC(O)(C(=O)CO)CC3OC1CC(N)C(O)C(C)O1 (stereo not given) + CN(C)c1ccc(Nc2c3ccc(NC(=O)CCN4CCCC4)cc3nc3cc(NC(=O)CCN4CCCC4)ccc23)cc1 | 1.0
* C=CCn1c(=O)c2cnc(Nc3ccc(N4CCN(C)CC4)cc3)nc2n1-c1cccc(C(C)(C)O)n1 + Cc1cnc(CNC(=O)c2c(=O)c3ccc(N4CCCN(C)CC4)nc3n3c2sc2ccccc23)cn1 | 0.0

----------
test system: 454973-116-R2-J3-PDC spheroids, viability, % test/control; assay: Anticancer human tumor 454973-116-R2-J3-PDC cell line growth inhibition [GQUAD]; conditions: second compound 3.16 µM; first compound 10 µM; active compounds read low; spheroids with HUVEC and MSC;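 further: spheroids exposed to compounds for seven days; 100% = DMSO vehicle control viability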
The threshold is 30%. Values of viability, T/C beneath it are tagged true (1); values meeting or exceeding it are tagged false (0).

* CC1COCCN1c1cc(C2(O)CC3CCC(C2)O3)c2cnn(-c3ccn[nH]3)c2n1 (configuration not stated) + Cc1[nH]c2ccc(F)cc2c1-c1nc2c3cccnc3c3ncccc3c2[nH]1 | true (1)
* COc1ncnc(C2CC2)c1-c1ncc2cnn(Cc3ccc(-c4nc(C(F)(F)F)cn4C(C)C)cc3)c2n1 + CN(C)c1ccc(Nc2c3ccc(NC(=O)CCN4CCCC4)cc3nc3cc(NC(=O)CCN4CCCC4)ccc23)cc1 | false (0)
* CC1COCCN1c1cc(C2(O)CC3CCC(C2)O3)c2cnn(-c3ccn[nH]3)c2n1 (configuration not stated) + CN(C)c1ccc(Nc2c3ccc(NC(=O)CCN4CCCC4)cc3nc3cc(NC(=O)CCN4CCCC4)ccc23)cc1 | true (1)
* CC1COCCN1c1cc(-c2ccnn2C)c2ccnc(-c3ccn[nH]3)c2n1 (configuration not stated) + CN(C)c1ccc(Nc2c3ccc(NC(=O)CCN4CCCC4)cc3nc3cc(NC(=O)CCN4CCCC4)ccc23)cc1 | true (1)
* Cc1cccc(N(C)C(=O)C2C(O)CCN2c2nc(C)cc(C(F)(F)F)c2C#N)c1 (configuration not stated) + Cc1cnc(CNC(=O)c2c(=O)c3ccc(N4CCCN(C)CC4)nc3n3c2sc2ccccc23)cn1 | false (0)
* C=CC(=O)N1CCN(c2nc(=O)n(-c3c(C)ccnc3C(C)C)c3nc(-c4c(O)cccc4F)c(F)cc23)C(C)C1 (configuration not stated) + Cc1[nH]c2ccc(F)cc2c1-c1nc2c3cccnc3c3ncccc3c2[nH]1 | false (0)
* COc1ccc([C@@H](O)c2cc(-c3ncnc4cc(N5CCOCC5)ccc34)c(F)cc2Cl)nn1 + Cc1cnc(CNC(=O)c2c(=O)c3ccc(N4CCCN(C)CC4)nc3n3c2sc2ccccc23)cn1 | true (1)
